Molecular target: CDK2 (Homo sapiens)
Experiment: biochemical
Set-up: species or system HEK293/K-562/placenta mixed human extract; Kinobeads chemoproteomic competition binding, quantified by TMT LC-MS/MS, dose response up to 20 uM
measurement.label: IC50

>>> value_measured("COc1ccccc1-c1n[nH]c2nc(N[C@H]3CC[C@H](NS(=O)(=O)CCC(F)(F)F)CC3)nc(OC)c12")
"1200 nM"

###

Target: MAP2K1 (Homo sapiens, UniProt Q02750)
Sequence (Q02750 whole entry): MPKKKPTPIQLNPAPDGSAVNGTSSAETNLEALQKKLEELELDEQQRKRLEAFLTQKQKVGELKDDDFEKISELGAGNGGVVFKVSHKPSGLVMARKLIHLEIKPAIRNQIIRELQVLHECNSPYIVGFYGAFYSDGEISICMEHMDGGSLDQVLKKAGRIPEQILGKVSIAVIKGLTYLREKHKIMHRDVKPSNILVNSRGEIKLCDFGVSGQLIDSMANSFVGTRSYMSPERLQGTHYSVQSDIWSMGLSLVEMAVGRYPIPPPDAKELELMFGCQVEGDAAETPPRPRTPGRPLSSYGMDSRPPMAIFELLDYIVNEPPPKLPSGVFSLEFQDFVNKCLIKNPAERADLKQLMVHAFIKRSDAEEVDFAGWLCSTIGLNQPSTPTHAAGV
Test: biochemical
Design: species or system HEK293/K-562/placenta mixed human extract; Kinobeads chemoproteomic competition binding, quantified by TMT LC-MS/MS, dose response up to 20 uM
pIC50: −log10 of the molar value.
measurement.label: pIC50

>>> value_measured("COc1nc(N[C@H]2CC[C@H](NS(=O)(=O)CC(C)C)CC2)nc2[nH]nc(N3CCOC[C@H]3C)c12 [compound 39]")
"≤ 4.70"
